- measurement.target: Human IP6K1 (Homo sapiens, UniProt Q92551)
- Construct: GST (N, cleaved yes); made in house; host or cells: C43 E. coli, pGEX-6P-2
- Sequence (Q92551 whole entry): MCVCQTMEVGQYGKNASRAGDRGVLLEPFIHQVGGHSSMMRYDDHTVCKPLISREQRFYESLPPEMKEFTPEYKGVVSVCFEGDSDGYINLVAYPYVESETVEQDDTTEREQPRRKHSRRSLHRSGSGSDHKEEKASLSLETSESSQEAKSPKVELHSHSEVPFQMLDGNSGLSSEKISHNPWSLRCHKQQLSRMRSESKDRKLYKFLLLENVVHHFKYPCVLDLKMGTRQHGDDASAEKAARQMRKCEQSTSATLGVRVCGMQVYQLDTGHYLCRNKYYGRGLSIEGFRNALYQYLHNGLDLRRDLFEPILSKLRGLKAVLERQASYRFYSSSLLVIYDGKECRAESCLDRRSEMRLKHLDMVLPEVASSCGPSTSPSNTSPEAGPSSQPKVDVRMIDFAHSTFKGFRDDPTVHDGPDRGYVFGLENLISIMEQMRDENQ
- test.summary: IP6K1 high-throughput screen of the Sigma LOPAC (ADP-Glo Max, single point);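 also: final compound concentration 10µM in 5% DMSO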
- Format: biochemical
- test.parameters: LOPAC single-point screen; Z-score relative to plate average and StDev
Where a name gives a salt, the structure may show the parent alone.
reported.endpoint: Z-score
One number for each entry.

The cases that follow already have their Z-score on record.
Problem: I have this compound here, `CC(C)(Sc1ccc(CCN(CCCCC2CCCCC2)C(=O)NC2CCCCC2)cc1)C(=O)O` , and I need its recorded Z-score.
Result: -0.4779

Problem: What value of measured Z-score is listed for NC/C=C/C(=O)O [(E)-4-amino-2-butenoic acid] ?
Result: -1.009

Problem: What does the data say about its Z-score? Entry: `OC[C@H]1O[C@@H](n2cnc3c(NCCc4ccccc4)ncnc32)[C@H](O)[C@@H]1O`
Result: -0.7633

Below are 3 compounds. Give each one its Z-score.
1. C#CCN(C)CCCOc1ccc(Cl)cc1Cl [Clorgyline hydrochloride]
2. CN1CCN(c2ccc3ccccc3n2)CC1.O=C(O)/C=C\C(=O)O.O=C(O)/C=C\C(=O)O [Quipazine, N-methyl-, dimaleate]
3. N#CC(C#N)=Cc1ccc(O)c(O)c1

Result:
-0.6208
-0.8542
-1.473

----------
- measurement.target: Human IP6K1 (Homo sapiens, UniProt Q92551)
- Construct: GST (N, cleaved yes); made in house; host or cells: C43 E. coli, pGEX-6P-2
- test.summary: IP6K1 high-throughput screen of the Sigma LOPAC (ADP-Glo Max, single point);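 also: final compound concentration 10µM in 5% DMSO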
- Format: biochemical
- test.parameters: LOPAC single-point screen; Z-score from raw signal with plate average and StDev
reported.endpoint: Z-score
One number for each entry.

Reference set (5 entries):
Problem: Kindly state the measured Z-score obtained for CC(C)N(CCC(C(N)=O)(c1ccccc1)c1ccccn1)C(C)C (centres unmarked) [Disopyramide phosphate] with Human IP6K1 (Homo sapiens, UniProt Q92551).
Result: -0.1629

Problem: Recall the recorded Z-score for `C=CCN1C[C@H](C)N([C@H](c2ccc(C(=O)N(CC)CC)cc2)c2cccc(OC)c2)C[C@H]1C` with Human IP6K1 (Homo sapiens, UniProt Q92551) and state it.
Result: -0.2152

Problem: Return Z-score measured with Human IP6K1 (Homo sapiens, UniProt Q92551) given this compound: `O=C(O)c1cc(O)c2ccc(Cl)cc2n1`
Result: -0.2642

Problem: Requested read-out Z-score, target or system Human IP6K1 (Homo sapiens, UniProt Q92551), entry O=C(O)/C=C\C(=O)O.O=C(O)/C=C\C(=O)O.c1cc(CN2CCCCC2)cc(OCCCNc2nc3ccccc3s2)c1 [SKF 95282 dimaleate]
Result: -0.3761

Problem: Record `Cc1ccc(=O)n(-c2ccccc2)c1` : what is its Z-score with Human IP6K1 (Homo sapiens, UniProt Q92551)?
Result: -0.3872

Provide Z-score values for the following items, in order.
1. CC[C@H](CO)Nc1nc(NCc2ccccc2)c2ncn(C(C)C)c2n1
2. CN1C[C@H](O)[C@@H](O)[C@H](O)[C@H]1CO
3. O=C(O)C=Cc1c[nH]cn1
4. N[C@@H](Cn1ccc(=O)[nH]c1=O)C(=O)O [S(-)-Willardiine]
5. Cn1c(=O)[nH]c2ncn(C)c2c1=O

Result:
1: -0.2467; 2: -0.2054; 3: -0.2444; 4: -0.1443; 5: -0.2648

Record Z-score for all entries; do not skip any.
1. Cl.Fc1ccc(C(OCCCc2c[nH]cn2)c2ccc(F)cc2)cc1
2. CC(N)(C(=O)O)c1ccc(C(=O)O)cc1 (racemic) [(±)-alpha-Methyl-4-carboxyphenylglycine]
3. Cl.NCCc1ccc(O)cc1 [4-Hydroxyphenethylamine hydrochloride]
4. COc1ccc2[nH]cc(CCN)c2c1.Cl [O-Methylserotonin hydrochloride]
5. Br.Cc1o[nH]c(=O)c1CC(N)C(=O)O (racemic) [(±)-AMPA hydrobromide]
6. CCCCCCCCCCCCCCCC(=O)OC(CC(=O)O)C[N+](C)(C)C.[Cl-] (racemic) [Palmitoyl-DL-Carnitine chloride]
7. CS(=O)(=O)Nc1ccc([N+](=O)[O-])cc1Oc1ccccc1 [Nimesulide]
8. NC(CCP(=O)(O)O)C(=O)O (racemic) [(±)-2-Amino-4-phosphonobutyric acid]

Result:
[-0.458, -0.4087, -0.2525, -0.1241, -0.1038, -0.4405, -0.4228, -0.4085]

This collection of values is drawn from paper PMC5706701.
